Reference source for all entries: the supplement of paper PMC11061612

Tested on: KELLY (Neuroblastoma)
experimental.protocol: Bliss excess, mean over the matrix (fraction); higher = more synergy;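 also: after 72 h of two-drug dosing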
reported.property: Bliss excess
One number for each entry.

Some entries whose results are on file:
COc1cccc(OCCCN)c1-c1cc(Nc2cnc(C#N)cn2)n[nH]1 [Prexasertib] + C=CCn1c(=O)c2cnc(Nc3ccc(N4CCN(C)CC4)cc3)nc2n1-c1cccc(C(C)(C)O)n1 [AZD1775] (first compound max 1 µM, partner max 1 µM) = 0.0252
CN(CCO)CC[C@H](CSc1ccccc1)Nc1ccc(S(=O)(=O)NC(=O)c2ccc(N3CCC([C@@H](O)c4ccccc4-c4ccc(Cl)cc4)CC3)cc2)cc1S(=O)(=O)C(F)(F)F [AZD4320] + Cc1cc2ncnn2cc1Nc1ncc2c(n1)n(C1CCOCC1)c(=O)n2C [AZD7648] (first compound max 1 µM, 7x7, partner max 10 µM) = 0.0306
O=C(c1cc(Cc2n[nH]c(=O)c3ccccc23)ccc1F)N1CCN(C(=O)C2CC2)CC1 [Olaparib] + Cc1c2c(nn1C)CSCc1cc(n(C)n1)CSc1cc(c3ccccc3c1)OCCCc1c(C(=O)O)n(C)c3c-2c(Cl)ccc13 [AZD5991] (first compound max 10 µM, 7x7, partner max 1 µM) = 0.0826
COc1cc2ncnc(Nc3ccc(F)c(Cl)c3)c2cc1OCCCN1CCOCC1 [Gefitinib] + CC(C)n1c(=O)n(C)c2cnc3cc(F)c(-c4ccc(OCCCN5CCCCC5)nc4)cc3c21 [AZD1390] (first compound max 10 µM, 7x7, partner max 0.3 µM) = -0.0388

List Bliss excess for every entry below, keeping the order given.
1. COc1nnc2ccc(N3CCC(c4ccc(OCCN5CCN(C)C(=O)[C@H]5C)cc4)CC3)nn12 [AZD5153] + C=CCn1c(=O)c2cnc(Nc3ccc(N4CCN(C)CC4)cc3)nc2n1-c1cccc(C(C)(C)O)n1 [AZD1775] (first compound max 1 µM, partner max 1 µM)
2. Cn1cnc2c(F)c(Nc3ccc(Br)cc3Cl)c(C(=O)NOCCO)cc21 [Selumetinib] + CCN(CCO)CCCOc1ccc2c(Nc3cc(CC(=O)Nc4cccc(F)c4)[nH]n3)ncnc2c1 [AZD2811] (first compound max 10 µM, 7x7, partner max 1 µM)

-0.0581
-0.0709

* * *

Would you mind telling me the reported Bliss excess of each entry?
Test system: MFE-296 (Endometrial Carcinoma)
experimental.protocol: Bliss excess, mean over the matrix (fraction); higher = more synergy
Answers are plain numbers.

Some entries whose results are on file:
CC1(C)CCC(CN2CCN(c3ccc(C(=O)NS(=O)(=O)c4ccc(NCC5CCOCC5)c([N+](=O)[O-])c4)c(Oc4cnc5[nH]ccc5c4)c3)CC2)=C(c2ccc(Cl)cc2)C1 [Venetoclax] + CN(C)CCCOc1ccc(-c2ccc3ncc4c(c3c2)n(C2CCOCC2)c(=O)n4C)cn1 [AZD0156] (first compound max 1 µM, 7x7, partner max 1 µM) = 0.0003
CC(=O)Nc1cccc(-n2c(=O)n(C3CC3)c(=O)c3c(Nc4ccc(I)cc4F)n(C)c(=O)c(C)c32)c1 [Trametinib] + Cc1nc(-c2cn3c(n2)-c2ccc(-c4cnn(C(C)(C)C(N)=O)c4)cc2OCC3)n(C(C)C)n1 [Taselisib] (first compound max 1 µM, 7x7, partner max 10 µM) = 0.0323

Shifting focus to the compound that follows.
Entry CC1(C)CCC(CN2CCN(c3ccc(C(=O)NS(=O)(=O)c4ccc(NCC5CCOCC5)c([N+](=O)[O-])c4)c(Oc4cnc5[nH]ccc5c4)c3)CC2)=C(c2ccc(Cl)cc2)C1 [Venetoclax] + COc1cc(Nc2ncc3c(n2)-c2ccc(Cl)cc2C(c2c(F)cccc2OC)=NC3)ccc1C(=O)O [Alisertib] (first compound max 1 µM, 7x7, partner max 10 µM) has what Bliss excess?
-0.0285
